# Tested on: cancer cell lines (PC3, HT29, Hela, HL60, Jurkat, K562, MCF7, HepG2)
# TEST_NAME: LDH assay cytotoxicity, span over the eight cancer cell lines
# Type: cell-based
# CONDITION_DESCRIPTION: Homo sapiens, read-out: IC50 on cancer cell lines (range over the eight lines)
pIC50: −log10 of the molar value.
I'd be grateful if you could share measured pIC50 for these entries.

>>> df
                                   molecule        result
0  CCOc1ccccc1N=NNc1ccccc1OCC [C, 1,3-bis(2-ethoxyphenyl)triazene]  5.48 to 6.25

Below: the item to evaluate.
q: Query: pIC50; subject: O=[N+]([O-])c1ccc(N=NNCCO)cc1 [E]
a: 4.81 to 5.52
